# ASSAY_PROCEDURE: chemical genetic growth profiling, strain panel (AID 1159580);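 note: tested at 20 µM; growth read once vehicle control cultures reached saturation at 30 °C; 1 = growth at the plate median or of vehicle wells; lower values mean less growth of the strain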
# CONDITIONS: S. cerevisiae deletion strains, growth OD, locus YLR085C, strain ARP6, stronger effect = lower value
The campaign covered roughly 5,500 compounds. About 2,000 (36%) were called active. Roughly 18% stayed inconclusive and do not appear here. The list shows a part of the results.
READOUT_KIND: normalized growth

Measured normalized growth of CCOC(=O)c1cnc2nc(SC)nn2c1N : 0.88 (inactive)

Measured normalized growth of COc1cc(/C=C2/SC(=S)NC2=O)cc(OC)c1OC : 0.845 (inactive)

Measured normalized growth of O=c1cc(C(F)(F)F)[nH]c2cc(Cl)cc(Cl)c12 : 0.487 (active)

Measured normalized growth of COC(=O)c1scc(S(=O)(=O)C(C)C)c1N/N=C(/C#N)C(=O)c1ccccc1 : 1.06 (inactive)

Measured normalized growth of COc1cc(OC)cc(N2C(=O)C=CC2=O)c1 : 0.0621 (active)

Measured normalized growth of CC(C)(C)C1=NN(c2ccccc2)C(=O)C1 : 0.637 (active)

Measured normalized growth of CN(C)/C=C1/C(=O)NN=C1CSc1ccccn1 : 1.05 (inactive)

Measured normalized growth of O=[N+]([O-])c1ccc(-c2nn[nH]n2)cc1 : 1.04 (inactive)

Measured normalized growth of COC(=O)CSCCc1nc(-c2ccc([N+](=O)[O-])cc2)cs1 : 0.717 (active)

Measured normalized growth of CC(=O)C1C(=O)CC(c2ccc(Cl)cc2)CC1=O (stereo unspecified) : 0.529 (active)

Measured normalized growth of Cc1ccc(N=Nc2c(C)[nH]n(C)c2=O)cc1 : 0.407 (active)

Measured normalized growth of O=C(COC(=O)c1ccccc1C(=O)c1ccccc1)c1ccccc1 : 0.936 (inactive)

Measured normalized growth of CCC(=O)Nc1cc(OC)cc(OC)c1 : 0.973 (inactive)

Measured normalized growth of CSc1nc(N)nc(N2CCCCC2)n1 : 0.936 (inactive)

Measured normalized growth of COc1cc(/C=C2/N=C(c3ccccc3I)OC2=O)cc(OC)c1OC : 1.01 (inactive)

Measured normalized growth of Cc1ccc(=O)n(Cc2ccc(Cl)c(Cl)c2)n1 : 0.938 (inactive)

Measured normalized growth of C1CCN(CCC2CCCCN2)CC1 (stereo unspecified) : 1.01 (inactive)

Measured normalized growth of O=C1c2ccccc2C(=O)C1c1ccccc1 : 0.972 (inactive)

Measured normalized growth of COc1cc([N+](=O)[O-])ccc1N1CCCC1 : 0.605 (active)

Measured normalized growth of CNS(=O)(=O)c1cc(Br)ccc1S(=O)c1ccccc1C(=O)O (stereo unspecified) : 0.983 (inactive)

Measured normalized growth of CN(C(=O)Nc1ccccc1)n1cnc2ccccc2c1=O : 1.04 (inactive)

Measured normalized growth of O/N=C\c1sccc1Oc1ccccc1 : 0.911 (inactive)

Measured normalized growth of N#C/C(=C\N(CCS(=O)(=O)c1ccc(Cl)cc1)Cc1cccs1)S(=O)(=O)c1ccc(Cl)cc1 : 0.943 (inactive)

Measured normalized growth of O=C1CC2(CCCC2)C(=O)N1CCNc1nccc(C(F)(F)F)n1 : 0.999 (inactive)

Measured normalized growth of COc1cccc(NC(=O)NC2Cc3ccccc3C2)c1 : 0.952 (inactive)

Measured normalized growth of COC(=O)c1cc([N+](=O)[O-])ccc1N1CCOCC1 : 1.06 (inactive)

These entries and their values trace back to PubChem BioAssay AID1159580.
